- targetSystem: T1, Recombinant human insulin receptor (B form) ECD (R&D Systems) (human, UniProt P06213 28-956, limits assumed)
- T1 construct: extracellular domain; also called INSR-ECD; h-INSR
- experimentDescription: SPR (Biacore 2000), INSR-ECD immobilised, purified Fab injected, 1:1 fit [cont'd]
Rule: Condition met for kon not less than 100000 M⁻¹ s⁻¹, Condition not met for anything less.

binder	categoryLabel
RHF.15.05896.015 (Fab, V domains shown, Untagged Fab) VH: EVQLVETGGGVVQPGRSLRLSCAASGFKFSSYAMHWVRQAPGKGLEWVAVISYSGRNKYYADSVKGRFTISRDNSKNTLYLQMNSLRAEDTAVYYCARHEWGFGQDYWGQGTTVTVSS VL: DVVMTQSPLSLPVTLGQPASISCRSSQSLVYGDGNTYLNWFQQRPGQSPRRLIYKVSNRDSGVPDRFSGSGSGTEFTLKISRVEAEDVGVYFCMQGTYWPGTFGGGTKLEIKR	Condition not met
RHF.15.05896.036 (Fab, V domains shown, Untagged Fab) VH: EVQLVETGGGVVQPGRSLRLSCAASGFKFSSYAMHWVRQAPGKGLEWVAVISYSGGNKYYADSVKGRFTISRDNSKNTLYLQMNSLRAEDTAVYYCARHEWGFGFDLWGQGTTVTVSS VL: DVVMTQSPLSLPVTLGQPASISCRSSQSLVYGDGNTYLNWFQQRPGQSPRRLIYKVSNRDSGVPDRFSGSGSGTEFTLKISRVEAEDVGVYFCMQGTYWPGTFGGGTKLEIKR	Condition met
RHF.15.05896.032 (Fab, V domains shown, Untagged Fab) VH: EVQLVETGGGVVQPGRSLRLSCAASGFKFSSYAMHWVRQAPGKGLEWVAVISYSGENKYYADSVKGRFTISRDNSKNTLYLQMNSLRAEDTAVYYCARHEWGFGFDEWGQGTTVTVSS VL: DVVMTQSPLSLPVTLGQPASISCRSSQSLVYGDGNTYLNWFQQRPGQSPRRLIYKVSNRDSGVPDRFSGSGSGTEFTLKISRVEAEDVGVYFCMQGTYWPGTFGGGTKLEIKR	Condition not met
RHF.15.05896.068 (Fab, V domains shown, Untagged Fab) VH: EVQLVETGGGVVQPGRSLRLSCAASGFKFSSYAMHWVRQAPGKGLEWVAVISYSGGNKYYADSVKGRFTISRDNSKNTLYLQMNSLRAEDTAVYYCARHEWGFGYDYWGQGTTVTVSS VL: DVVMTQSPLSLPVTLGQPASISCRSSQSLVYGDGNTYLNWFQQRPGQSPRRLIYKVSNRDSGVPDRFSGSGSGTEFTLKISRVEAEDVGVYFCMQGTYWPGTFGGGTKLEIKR	Condition met
RHF.15.05896.020 (Fab, V domains shown, Untagged Fab) VH: EVQLVETGGGVVQPGRSLRLSCAASGFKFSSYAMHWVRQAPGKGLEWVAVISWSGSNKYYADSVKGRFTISRDNSKNTLYLQMNSLRAEDTAVYYCARHEWGFGFDEWGQGTTVTVSS VL: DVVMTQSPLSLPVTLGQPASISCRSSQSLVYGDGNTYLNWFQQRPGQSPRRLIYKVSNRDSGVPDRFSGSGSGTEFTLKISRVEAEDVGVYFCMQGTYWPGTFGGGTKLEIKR	Condition met
